- Species: Rattus norvegicus
- methodSummary: Open TG-GATES - Regimen: Single
- Type: toxicity, organism-based, Sprague-Dawley
- Design: regimen Single, gender Male, age 6 weeks
- testConditions: in vivo, po, 1000 mg/kg, 24 h, tissue Blood, route gavage, dose level High
The following compounds are listed with their measured Plat values.
Please state the figure in x10_4/uL; there is no need to write the unit.

Please review the entries below; each comes with its answer.
CCc1cc(C(N)=S)ccn1 [ETHIONAMIDE]; 118
O=C(O)c1cn(C2CC2)c2cc(N3CCNCC3)c(F)cc2c1=O; 106.5
O=C(O)c1cc(/N=N/c2ccc(S(=O)(=O)Nc3ccccn3)cc2)ccc1O; 135.4
Clc1ccccc1CN1CCc2sccc2C1; 129.7

Query compound follows.
I'd like to know its Plat. The compound in question is C[C@H](CS)C(=O)N1CCC[C@H]1C(=O)O
110.3

* * *

- Organism: Rattus norvegicus
- methodSummary: Open TG-GATES - Regimen: Single
- Type: toxicity, organism-based, Sprague-Dawley
- Parameters: regimen Single, gender Male, age 6 weeks
- testConditions: in vivo, po, 0 mg/kg, 24 h, tissue Blood, route gavage, dose level Control
The following compounds are listed with their measured Ht values.
Please state the figure in %; there is no need to write the unit.

CC(=O)Oc1ccccc1C(=O)O [ASPIRIN]; 37.7
C[C@H](CS)C(=O)N1CCC[C@H]1C(=O)O [CAPTOPRIL]; 40.3
CCc1cc(C(N)=S)ccn1 [ETHIONAMIDE]; 41.1
COc1cc2c(c3oc(=O)c4c(c13)CCC4=O)[C@@H]1C=CO[C@@H]1O2 [AFLATOXIN]; 37.5
Cn1c(=O)c2[nH]cnc2n(C)c1=O.O [THEOPHYLLINE]; 40.4
CSc1ccc2c(c1)N(CCC1CCCCN1C)c1ccccc1S2 (configuration not stated) [THIORIDAZINE]; 38.9

I'd like to know its Ht. The compound in question is NC(=O)N1c2ccccc2C=Cc2ccccc21 [CARBAMAZEPINE]
40.7

I'd like to know its Ht. The compound in question is NC(=O)N/N=C/c1ccc([N+](=O)[O-])o1 [NITROFURAZONE]
40.1

I'd like to know its Ht. The compound in question is O=C(O)c1cc(/N=N/c2ccc(S(=O)(=O)Nc3ccccn3)cc2)ccc1O [SULFASALAZINE]
39

I'd like to know its Ht. The compound in question is Clc1ccccc1CN1CCc2sccc2C1 [TICLOPIDINE]
38.7

I'd like to know its Ht. The compound in question is COc1ccc(Cc2nccc3cc(OC)c(OC)cc23)cc1OC [PAPAVERINE]
40

I'd like to know its Ht. The compound in question is CN(C)CCC=C1c2ccccc2CCc2ccccc21 [AMITRIPTYLINE]
38.5

* * *

The following compounds are listed with their measured Eos values.
- Species on record: Rattus norvegicus
- methodSummary: Open TG-GATES - Regimen: Daily Repeat
- Assay type: toxicity, organism-based, Sprague-Dawley
- Set-up: regimen Daily Repeat, gender Male, age 6 weeks
- testConditions: in vivo, po, 0 mg/kg, 72 h, tissue Blood, route gavage, dose level Control, time 3 day
Please state the figure in %; there is no need to write the unit.

Please review the entries below; each comes with its answer.
CCCC(CCC)C(=O)O [VALPROIC ACID]; 1
CO[C@H]1/C=C/O[C@@]2(C)Oc3c(C)c(O)c4c(O)c(c(/C=N/N5CCN(C)CC5)c(O)c4c3C2=O)NC(=O)/C(C)=C\C=C\[C@H](C)[C@H](O)[C@@H](C)[C@@H](O)[C@@H](C)[C@H](OC(C)=O)[C@@H]1C [RIFAMPIN]; 1

I'd like to know its Eos. The compound in question is NC(=O)N/N=C/c1ccc([N+](=O)[O-])o1 [NITROFURAZONE]
0.6

I'd like to know its Eos. The compound in question is O=C(O)c1cc(/N=N/c2ccc(S(=O)(=O)Nc3ccccn3)cc2)ccc1O [SULFASALAZINE]
1
